# experimental.system: T1, oligopeptide SGHLDM (SEQ ID NO: 99)
# T1 construct: Synthetic peptide, part of Loop C of AQP3
# T1 peptide: SGHLDM
# experiment.summary: ELISA on coated peptide
test.readout: binding signal (plate reader)
Answers are plain numbers.

Item: BC-H9 (IgG) (antibody, V domains shown, also called anti AQP3 antibody BC-H9) VH: QSLEESGGRLVTPGTPLTLTCTVSGFSLYTYAMGWVRQAPGKGLEWIGIINNDGISSTWYASWVKGRFTISKTSTTMDLKMTSLTTEDTATYFCARGGTSGYDIWGPGTLVTVSL VL: AQGLTQTPSPVSAAVGGTVTINCQSGPSVYKNYLSWYQQKAGQPPKLLIYGASTLASGVPSRFKGSGSGTQFTLTISDVQCDDAATYYCAGGYRGSSDIFAFGGGTEVVVK | binding signal (plate reader): 0.053

More entries:
Item: Antibody C (antibody, mouse IgG2a, kappa, V domains shown, also called anti AQP3 antibody C) VH: QVQLKQSGAELARPGASVKLSCKASGYNFKSYGISWVKQRTGQGLEWIGEIYPGSGNTYYNEKLKGKATLTADKSSSTAYMELRSLTSEDSAVYFCARTYGYDSFPWFAYWGQGTLVTVSS VL: DIVMTQAAPSVPVTPGESVSISCRSSKSLLHSNGNTYLYWFLQRPGQSPQLLIYRVSNLASGVPDRFSGSGSGTAFTLRISRVEAEDEGVYYCMQHLEYPFTFGAGTKLEIKR | binding signal (plate reader): 0.048
